- tested_target: T1, monovalent, heterodimeric human ICOS-Fc (human)
- T1 construct: Make-up of the heterodimer is not described; also called Monomeric hICOS; monomeric form of human ICOS; not shown: The human IgG1 Fc fused to ICOS, and the partner Fc chain of the heterodimer
- T1 chain: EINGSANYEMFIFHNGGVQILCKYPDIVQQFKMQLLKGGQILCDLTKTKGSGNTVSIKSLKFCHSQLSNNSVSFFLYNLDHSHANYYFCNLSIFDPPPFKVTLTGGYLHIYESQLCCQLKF
- protocol_details: BLI (Octet RED96), IgG vs monovalent heterodimeric ICOS-Fc
metric_name: koff (s⁻¹)
The reply should be a number in s⁻¹, with the unit left off.

binder	koff / s⁻¹
7F12 (antibody, V domains shown, Armenian hamster monoclonal tested as IgG; also called hamster anti-ICOS 7F12) VH: EVQLVESGGGLVKPGGSLTLSCAASGFTFSDYWMDWVRQGPGKGLEWVGNIDEDGSTTYYAPFVKGRFTISRDNAKKTLYLQMNSVKSEDTATYYCTRWGRYAFDSWGQGTLVTVSS VL: DIVMTQSPSSLAVSPGDKVTINCKSSQSLLSGNYNYLAWYQQKTGQAPKLLIFYASTRHTGVPDRFMGSGSGTDFSLTINSFQTEDLGDYYCQHHYSTPPTFGPGTKLEIK	0.00175
36E10 (antibody, V domains shown, Armenian hamster monoclonal tested as IgG; also called hamster anti-ICOS 36E10) VH: EVQLVESGGGLVKPGGSLKLSCAASGFTFSDYWMDWVRQAPGKGLEWVGNIDEDGSITEYSPFVKGRFTISRDNVKNILYLQMNSVKSEDTATYYCTRWGRFAFDSWGQGTLVTVSS VL: DIVMTQSPSSLAVSPGDRVTINCKSSQSLLSGSFHYLTWYQQKTGQAPKLLIFYASTRHTGVPDRFMGSGSGTDFTLTINSFQTEDLGDYYCHHHYNAPPTFGPGTKLELR	0.000228
37A10 (antibody, V domains shown, Armenian hamster monoclonal tested as IgG; also called hamster anti-ICOS 37A10) VH: EVQLVESGGGLVKPGGSLKLSCAASGFTFSDYWMDWVRQAPGKGLEWVGNIDEDGSITEYSPFVKGRFTISRDNVKNTLYLQMNSVKSEDTATYYCTRWGRFGFDSWGQGTLVTVSS VL: DIVMTQSPSSLAVSAGDRVTINCKSSQSLLSGSFNYLTWYQQKTGQAPKLLIFYASTRHTGVPDRFMGSGSGTDFTLTINSFQTEDLGDYYCHHHYNAPPTFGPGTKLELR	0.000479
35A9 (antibody, V domains shown, Armenian hamster monoclonal tested as IgG; also called hamster anti-ICOS 35A9) VH: EVQLVESGGGLVKPGGSLKLSCAASGFTFSDYWMDWVRQAPGKGLEWVGNIDEDGSIAEYSPFVKGRFTISRDNVKNTLYLQMNSVKSEDTATYYCSRWGRFAFDSWGQGTLVTVSS VL: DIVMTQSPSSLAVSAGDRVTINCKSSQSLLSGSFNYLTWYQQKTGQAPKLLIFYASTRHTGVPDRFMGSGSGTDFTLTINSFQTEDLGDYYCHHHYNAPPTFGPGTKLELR	0.000438

Retrieve koff measured for 16G10 (antibody, V domains shown, Armenian hamster monoclonal tested as IgG; also called hamster anti-ICOS 16G10) VH: EVQLVESGGGLVKPGGSLKLSCAASGFTFSDYWMDWVRQAPGKGLEWVGNIDHDGNIINFAPSVKGRFTISRDNAKNTLYLQMNSVKSEDTATYYCARWGHYAFDSWGQGTLVTVSS VL: DIVMTQSPSSLAVSAGDKVTINCKSSQSLLSSGYNYLIWYQQKTGQAPKLLIFYASTRHTGVPDRFIGSGSGTDFTLTITSFQTEDLGDYYCQHHYSSPPTFGPGTKLEIK and print it.
0.000712

Where do these numbers come from? They come from patent US20180371091A1.
